Where do these numbers come from? They come from the Immune Epitope Database (IEDB).

List of log10 of IC50 values.
# ASSAY_TARGET: HLA-A*02:02
# MEASUREMENT_DESCRIPTION: IEDB peptide-MHC binding, purified MHC/competitive/radioactivity; bounds were set here for any values at or beyond the usual limits of such assays
# CONDITION_PARAMETERS: source organism: Mammarenavirus whitewaterense
ASSAY_METRIC: log10 of IC50 (log10 of the value in nM)

# SEQ_TEXT, log10 of IC50
data = [
    ("LNASYITPYV", 1.52),
    ("FSAVISGSV", 1.68),
    ("GLVDVCFWS", 2.06),
    ("KTVAGSFAS", 3.20),
    ("INISGYNLSL", 2.25),
    ("CNYTKFWYV", 3.29),
    ("YCNYTKFWYV", 2.51),
    ("GLLQFIVFL", -0.22),
    ("FLLRGPFEAS", 1.43),
    ("LDFAKVASV", 1.79),
    ("VCFWSTLFYV", 2.54),
    ("TVIKTLLEV", 3.31),
    ("YNLSLSAAV", 2.94),
]

====

# ASSAY_TARGET: HLA-A*02:02
# MEASUREMENT_DESCRIPTION: IEDB peptide-MHC binding, purified MHC/competitive/radioactivity; bounds were set here for any values at or beyond the usual limits of such assays
# CONDITION_PARAMETERS: source organism: Vaccinia virus WR
Recorded IC50 determines the label; the label ranges are bucket 1 = under 60 nM, bucket 2 = from 60 nM up to 700 nM, bucket 3 = 700 nM and over

# SEQ_TEXT, ASSIGNED_LABEL
measured = [
    ("EVNDTHYTV", "bucket 2"),
    ("TLLNETAKV", "bucket 2"),
    ("NLDDVYSYI", "bucket 1"),
    ("IMEIVSHLRA", "bucket 3"),
    ("KINPLLDEPL", "bucket 1"),
    ("YLSGTDDEVI", "bucket 1"),
    ("RIKSVLDII", "bucket 2"),
    ("LTGTFVTAFI", "bucket 2"),
    ("CTMERTNDLT", "bucket 3"),
    ("IADIRDKYM", "bucket 2"),
    ("LLNMRDLIVT", "bucket 3"),
    ("LVDKEDTDIV", "bucket 3"),
    ("KLLSTSNVIT", "bucket 3"),
    ("ITVGMLIYSM", "bucket 1"),
    ("ALYSPPLISI", "bucket 1"),
    ("QLVFNSISA", "bucket 3"),
    ("SIDHCSSFIV", "bucket 2"),
    ("QLSNNKYVL", "bucket 2"),
    ("TVQEFIFSAL", "bucket 2"),
    ("FTNSQIFNII", "bucket 2"),
    ("IVVALSSLV", "bucket 1"),
]

====

# ASSAY_TARGET: HLA-A*02:01
# MEASUREMENT_DESCRIPTION: IEDB peptide-MHC binding, purified MHC/competitive/radioactivity; bounds were set here for any values at or beyond the usual limits of such assays
# CONDITION_PARAMETERS: source organism: Vaccinia virus WR
pIC50: −log10 of the molar value.
Below, each of the sequences is paired with its reported pIC50 value.

# SEQ_TEXT, pIC50
rows = [
    ("ALVSDCASTI", 7.14),
    ("DLLNVTYNI", 6.10),
    ("LTFWQIDYL", 8.14),
    ("LLLENKSLTI", 6.36),
    ("IVNTTYDFL", 5.98),
    ("STEERHIFL", 5.65),
    ("DIISSKQYPA", 5.54),
    ("IIPFIAYFVL", 6.00),
    ("RMILYLESV", 8.74),
    ("RVYEALYYV", 8.82),
    ("VIHDYICWL", 7.92),
    ("ALWDSNFFT", 5.43),
    ("RIPNSLHSL", 6.17),
    ("VMPEKRNVV", 6.31),
    ("KVYDKLFPV", 9.47),
    ("VVMAYVGIKL", 6.66),
    ("QLVKDESIQL", 6.04),
    ("IILLFDFSI", 6.79),
    ("KLTFLDVEV", 7.03),
    ("IMDKEQLLKI", 6.05),
    ("CLKDIIDFL", 6.17),
    ("GLYYQGSCYI", 8.29),
    ("MLLNVQTLI", 8.54),
    ("MTLSCNGET", 5.71),
    ("KLLNMRDLI", 7.74),
    ("GVLHTKFWI", 5.57),
    ("YIMRVMANNV", 7.31),
    ("VLVDNVDFA", 7.70),
    ("FMAYTTSHI", 8.49),
    ("YIPPCQCTV", 6.97),
    ("CVLTTIDGV", 6.53),
    ("DAIIDIEPDL", 5.64),
    ("ILYYGANGST", 6.54),
    ("SMVISLLSMI", 7.10),
    ("ELVFIKPPLI", 5.48),
    ("IVSRSSRGV", 5.70),
    ("HLIFSYAFL", 6.98),
    ("SLFSLLLVI", 8.24),
    ("ILTREMGFLV", 8.15),
    ("VVCNDLYKV", 6.76),
    ("IVTFINDYA", 5.36),
    ("ITRLEVIGL", 5.44),
    ("LMIEYNLLT", 8.82),
    ("WISDNTHIYL", 7.92),
]
